FYI, the data here is from paper PMC10010643.

# Experiment Notes: Plasma PK, Part A single oral doses in healthy participants
# Assay type: in vivo, human
# Details: human, plasma, oral, 50 mg, single dose 50 mg (1 × 50 mg), fasted; read-out: AUC0–∞, geometric mean (CV%)
Measured Attribute: AUC(0-inf) (ng·h/mL)
Could you give me the number in ng·h/mL? Just the number is fine.

Item: OC[C@H]1O[C@H](Sc2cncc(Br)c2)[C@H](O)[C@@H](n2cc(-c3cc(F)c(F)c(F)c3)nn2)[C@H]1O [GB1211] | AUC(0-inf): 4520

====

# Experiment Notes: Plasma PK, Part B multiple oral BID doses in healthy participants
# Type: in vivo, human
# Details: human, plasma, oral, 100 mg, 100 mg BID, fasted, Day 10; read-out: t½, arithmetic mean (SD) (converted)
Measured Attribute: half-life

Item: OC[C@H]1O[C@H](Sc2cncc(Br)c2)[C@H](O)[C@@H](n2cc(-c3cc(F)c(F)c(F)c3)nn2)[C@H]1O [GB1211] | half-life: ~13.1 h

====

# Experiment Notes: Plasma PK, Part B multiple oral BID doses in healthy participants
# Format: in vivo, human
# Details: human, plasma, oral, 50 mg, 50 mg BID, fasted, Day 1; read-out: AUC0-τ, geometric mean (CV%)
Measured Attribute: AUC (ng·h/mL)
Could you give me the number in ng·h/mL? Just the number is fine.

Item: OC[C@H]1O[C@H](Sc2cncc(Br)c2)[C@H](O)[C@@H](n2cc(-c3cc(F)c(F)c(F)c3)nn2)[C@H]1O [GB1211] | AUC: 2220

====

# Experiment Notes: Plasma PK, Part A single oral doses in healthy participants
# Assay type: in vivo, human
# Details: human, plasma, oral, 50 mg, single dose 50 mg (1 × 50 mg), fed; read-out: Tmax, median (min–max)
Measured Attribute: Tmax
Kindly write the number and append the unit.

Item: OC[C@H]1O[C@H](Sc2cncc(Br)c2)[C@H](O)[C@@H](n2cc(-c3cc(F)c(F)c(F)c3)nn2)[C@H]1O | Tmax: 5 h

====

# Experiment Notes: Plasma PK, Part A single oral doses in healthy participants
# Assay type: in vivo, human
# Details: human, plasma, oral, 100 mg, single dose 100 mg (2 × 50 mg), fasted; read-out: AUC0–∞, geometric mean (CV%)
Measured Attribute: AUC(0-inf) (ng·h/mL)
Could you give me the number in ng·h/mL? Just the number is fine.

Item: OC[C@H]1O[C@H](Sc2cncc(Br)c2)[C@H](O)[C@@H](n2cc(-c3cc(F)c(F)c(F)c3)nn2)[C@H]1O | AUC(0-inf): 6380

====

# Experiment Notes: Plasma PK, Part A single oral doses in healthy participants
# Assay type: in vivo, human
# Details: human, plasma, po, single oral dose; read-out: Arithmetic mean terminal half-life (t½), range across doses
Measured Attribute: half-life

Item: OC[C@H]1O[C@H](Sc2cncc(Br)c2)[C@H](O)[C@@H](n2cc(-c3cc(F)c(F)c(F)c3)nn2)[C@H]1O | half-life: 11.3 to 15.5 h

====

# Experiment Notes: Plasma PK, Part A single oral doses in healthy participants
# Format: in vivo, human
# Details: human, plasma, po, single and multiple oral doses, fasted; read-out: Mean half-life, range across doses
Measured Attribute: half-life

Item: OC[C@H]1O[C@H](Sc2cncc(Br)c2)[C@H](O)[C@@H](n2cc(-c3cc(F)c(F)c(F)c3)nn2)[C@H]1O | half-life: 11 to 16 h
